# Protocol description: Pharmacokinetic analysis in rat plasma
# Type: in vivo
# Condition details: male, Sprague-Dawley, rat, plasma, po, 100 mg/kg, rat plasma, PO 100 mg/kg, AVERAGE
Quantity kind: AUC(0-inf) (ng·h/mL)
State the answer as a number, implicitly in ng·h/mL.

*Q* I'd like to know its AUC(0-inf). The compound in question is CCOc1cc(N(C)C)ccc1C1CC(=O)Nc2cc3c(cc21)OCO3 (stereo not shown)
*A* 4960

###

# Protocol description: Pharmacokinetic analysis in rat plasma
# Type: in vivo
# Condition details: male, Sprague-Dawley, rat, plasma, iv, 4 mg/kg, rat plasma, IV 4 mg/kg, AVERAGE; read-out: C0
Quantity kind: C0 (ng/mL)
State the answer as a number, implicitly in ng/mL.

*Q* I'd like to know its C0. The compound in question is CCOc1cc(N(C)C)ccc1C1CC(=O)Nc2cc3c(cc21)OCO3 (stereo not shown)
*A* 423

###

# Target: UniProt Q12800
# Sequence (Q12800 whole entry): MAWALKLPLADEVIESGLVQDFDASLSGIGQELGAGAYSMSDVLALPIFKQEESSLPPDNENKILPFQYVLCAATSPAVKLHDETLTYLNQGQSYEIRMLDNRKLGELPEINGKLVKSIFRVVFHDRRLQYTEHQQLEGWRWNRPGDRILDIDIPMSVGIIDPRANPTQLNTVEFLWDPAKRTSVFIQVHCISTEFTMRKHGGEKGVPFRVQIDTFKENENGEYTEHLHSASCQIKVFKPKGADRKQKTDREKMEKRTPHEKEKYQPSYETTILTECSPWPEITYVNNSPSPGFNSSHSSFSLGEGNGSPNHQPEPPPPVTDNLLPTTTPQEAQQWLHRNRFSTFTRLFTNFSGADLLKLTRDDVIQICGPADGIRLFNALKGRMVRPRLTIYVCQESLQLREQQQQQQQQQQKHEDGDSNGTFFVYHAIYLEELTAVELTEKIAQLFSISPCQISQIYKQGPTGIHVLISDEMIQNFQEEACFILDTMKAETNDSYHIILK
# Protocol description: LSF-dependent luciferase reporter assay in NIH 3T3 cells
# Assay type: cell-based
# Parameters: expressed in transfected cells; host or cells: NIH 3T3
# Condition details: NIH 3T3 cells, dual luciferase; ranges where few concentrations tested; read-out: IC50 (μM) LSF-dependent reporter assat NIH 3T3
Quantity kind: IC50

Consider the following illustrative entries.
CCCCOc1ccccc1C1CC(=O)Nc2cc3c(cc21)OCO3 (stereo not drawn) | 3 to 5 µM
COc1ccccc1C1CC(=O)Nc2cc3c(cc21)OCO3 (stereo not drawn) | 3 to 4 µM

*Q* // fetch UniProt Q12800 IC50 for CCCOc1ccccc1C1CC(=O)Nc2cc3c(cc21)OCO3 (stereo not drawn)
*A* 2 to 4 µM

###

# Tested on: HeLa cells
# Protocol description: Cell proliferation assay (MTS), HeLa
# Type: cell-based
# Condition details: Homo sapiens, HeLa; Example 7, FIG. 8; read-out: growth inhibition of HeLa Cell Line IC50
Quantity kind: IC50

Consider the following illustrative entries.
CCOc1ccccc1C1CC(=O)Nc2cc(OC)c(OC)c(OC)c21 (stereo not drawn) [FQI11] | > 200 µM
COc1ccccc1C1CC(=O)Nc2cc(OC)c(OC)c(OC)c21 (stereo not drawn) [FQI15] | > 200 µM

*Q* I'd like to know its IC50. The compound in question is COc1ccc(C2CC(=O)Nc3cc4c(cc32)OCO4)cc1 (stereo not drawn) [FQI19]
*A* > 200 µM
